system: various cell lines of different tumor origins; assay: Inhibition of cell proliferation, InCell Analyzer assay; assay type: cell-based; details: Homo sapiens, NCI-H292, NCI-H292, Lung
pIC50: −log10 of the molar value.
property_label: pIC50

Fill in: pIC50 on various cell lines of different tumor origins, entry `COc1cc(N2CCC(N3CCCCC3)CC2)ccc1Nc1nccc(-c2c(-c3cccc(C(=O)Nc4c(F)cccc4F)c3)nc3ccccn23)n1`
5.30 to 6.00

###

test system: various cell lines of different tumor origins; assay: Inhibition of cell proliferation, InCell Analyzer assay; type: cell-based; details: Homo sapiens, U-87 MG, glioma
property_label: IC50

Identify measured IC50 corresponding to `COc1cc(N2CCC(N3CCCCC3)CC2)ccc1Nc1nccc(-c2c(-c3cccc(C(=O)Nc4c(F)cccc4F)c3)nc3ccccn23)n1`
> 5 µM
